I'd appreciate it if you could supply IC80 (neutralization in TZM.bl cells) values for the items below.
Target: HIV-1 pseudovirus 6952.v1.c20 (HIV-1)
Test: cell-based or functional assay

Illustrative cases are given below, each with its answer.
>  <binder>
MS-74 (antibody, V domains shown) VH: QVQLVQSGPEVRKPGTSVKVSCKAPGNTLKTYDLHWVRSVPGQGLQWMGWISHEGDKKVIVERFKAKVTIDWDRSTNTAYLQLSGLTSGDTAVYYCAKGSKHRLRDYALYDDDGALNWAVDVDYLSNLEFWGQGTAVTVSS VL: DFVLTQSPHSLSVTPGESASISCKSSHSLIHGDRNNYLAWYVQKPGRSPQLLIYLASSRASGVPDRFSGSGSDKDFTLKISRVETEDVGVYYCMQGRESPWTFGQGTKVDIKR

>  <value.measured>
15.1 µg/mL

$$$$
>  <binder>
MS-92 (antibody, V domains shown) VH: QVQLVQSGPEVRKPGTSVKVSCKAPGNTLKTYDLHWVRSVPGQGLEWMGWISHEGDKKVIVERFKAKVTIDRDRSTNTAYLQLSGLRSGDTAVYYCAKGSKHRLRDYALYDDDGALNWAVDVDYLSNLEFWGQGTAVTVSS VL: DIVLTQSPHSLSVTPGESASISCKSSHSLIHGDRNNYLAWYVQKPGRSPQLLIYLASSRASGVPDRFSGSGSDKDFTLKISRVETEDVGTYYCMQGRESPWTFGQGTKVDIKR

>  <value.measured>
> 25 µg/mL

$$$$

Lab note: next binder to report on.
State the recorded IC80 (neutralization in TZM.bl cells) for this entry: MS-79 (antibody, V domains shown) VH: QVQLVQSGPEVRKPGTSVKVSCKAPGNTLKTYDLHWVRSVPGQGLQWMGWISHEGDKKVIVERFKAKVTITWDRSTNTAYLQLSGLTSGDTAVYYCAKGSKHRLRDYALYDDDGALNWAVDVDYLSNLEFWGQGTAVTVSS VL: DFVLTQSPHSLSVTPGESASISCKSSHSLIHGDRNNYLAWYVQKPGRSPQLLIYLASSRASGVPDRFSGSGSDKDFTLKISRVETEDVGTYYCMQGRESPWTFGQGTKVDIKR > 25 µg/mL
